Reference for the values: PubChem BioAssay (NCI)

System: HT29 colon
measurementProtocol: NCI-60 one-dose screen, 48 h (100 = growth as untreated, 0 = no growth, -100 = all killed)
reportedConditions: 10 µM unless noted
This is part of a sample that, as a whole, favours compounds with a hit. Of some 83,000 tested, about 20% had one in any assay.

compound: c1coc(CNc2c3ccccc3nc3ccccc23)c1
growth [%]: 35.1
--
compound: COc1cc(/C=C/c2cc(/C=C/c3ccc(O)c(OC)c3)n(C(=O)Nc3ccc(F)c(Cl)c3)n2)ccc1O
growth [%]: -33.6
--
compound: COc1cc(NCCC2CCCCN2)c2ncccc2c1OC (stereo not given)
growth [%]: 73.7
--
compound: O=C(N/N=C/c1ccccc1O)c1ccncc1
growth [%]: 42.7
--
compound: COc1ccc(NC(=O)c2sc3c(=O)[nH]c(C(F)(F)F)nc3c2C)cc1
growth [%]: 103
--
compound: Cc1ccc(Nc2cc(Cl)c([N+](=O)[O-])cc2[N+](=O)[O-])cc1
growth [%]: 3.12
--
compound: CC(C)(C)c1ccc(OC(=O)Nc2ccccc2)cc1
growth [%]: 101
--
compound: COc1ccc(-c2nc3c(c(-c4ccc(Cl)cc4)nn3-c3ccccc3)c(-c3ccc(O)cc3)c2C#N)cc1
growth [%]: 23
--
compound: Oc1ccccc1-c1nnc(COc2ccc(Cl)cc2Cl)o1
growth [%]: 60.3
--
compound: COc1cc2ncnc(Nc3ccc(S(=O)(=O)Nc4nccs4)cc3)c2cc1OCCCN1CCOCC1
growth [%]: 106

* * *

Tested on: MCF7 breast
measurementProtocol: NCI-60 one-dose screen, 48 h (100 = growth as untreated, 0 = no growth, -100 = all killed)
reportedConditions: 10 µM unless noted
The panel holds about 83,000 compounds, 20% with a hit somewhere; the sample as a whole holds those more often.

compound: O=C(/C=C/c1ccc(F)cc1)N1CCN(C(=O)/C=C/c2ccc(C(F)(F)F)cc2)CC1
growth (%): 98.2

compound: COc1ccc(C2=NNC(c3ccc(Oc4nc5c(c(=O)n(C)c(=O)n5C)n4C)c(OC)c3)C2)cc1 (configuration not stated)
growth (%): 87.6

compound: CS(=O)(=O)c1ccc(C(=O)Nc2ccc(Cl)c(-c3ccccn3)c2)c(Cl)c1
growth (%): 20.4

compound: O=C1c2cccc3cccc(c23)C(=O)N1CCCCCCCCCCN1C(=O)c2cccc3cccc(c23)C1=O
growth (%): 86.9

compound: O/N=C/c1ccncc1
growth (%): 97.3

compound: Cc1ccncc1NC=O
growth (%): 95.9

compound: CCCCCCCCCCCCNC(=O)N[C@H](C(=O)N[C@H]1/C=C/CCNC(=O)/C=C/[C@H](C)NC1=O)C(C)C
growth (%): 14.1

compound: N/N=C(\C(=N\N)c1ccccc1)c1ccccc1
growth (%): 90

compound: N#Cc1ccc(-c2ccc(-c3cccs3)o2)cc1F
growth (%): 26.4

compound: COc1cc2c(=O)n(CCCN(C)C)c3c4cc[nH]c4ncc3c2cc1OC
growth (%): 15.5

compound: NS(=O)(=O)c1ccc(CCn2c(SCC(=O)N/N=C/c3ccccc3O)nc3ccccc3c2=O)cc1
growth (%): 21.7

compound: CC(=O)Cc1ccccn1
growth (%): 97.8

compound: COc1ccc(CNc2c3ccccc3nc3ccc(OC)cc23)cc1
growth (%): -29.8

compound: COc1ccc(-c2cc(C(=O)Nc3ccc(Br)cc3)nc3[nH]c(=O)sc23)cc1
growth (%): 24.3

compound: CCCCCCCC/C=C/CCCCCCCC1=NC(C)(C)CN1C(C)C
growth (%): -60.5

compound: COc1cccc(-c2nc3sccn3c2-c2ccnc(NCCN3CCCN(C)S3(=O)=O)n2)c1
growth (%): 106

compound: COc1ccc(-n2c(COc3ccc(F)cc3)n[nH]c2=S)cc1
growth (%): 107

compound: O=C(O)C(CCc1ccccc1)NCc1ccccc1 (configuration not stated)
growth (%): 95.3

compound: CNC1=C([N+](=O)[O-])C(c2ccccc2O)C(C#N)=C(c2cccs2)O1 (configuration not stated)
growth (%): 92.3

compound: O=C1CCCN1C(O)CCN(Cc1ccccc1)Cc1ccc(Cl)cc1 (configuration not stated)
growth (%): 94.1

compound: CC(C)c1cccc(C#N)c1
growth (%): 95.1

compound: CCC(=O)OCc1ccc(OC)cc1
growth (%): 107

compound: CC(C)(C)[Si](C)(C)OC1[C@@H](CNC(N)=O)O[C@@H](n2cnc3c(NC(=O)Nc4ccccc4)ncnc32)[C@H]1O[Si](C)(C)C(C)(C)C (some centres not stated)
growth (%): 17.9

compound: CCN(CC)C(=O)O/N=C(/C)c1ccccc1
growth (%): 97.1

compound: CC(=O)Oc1ccccc1C(=O)Nc1ncc([N+](=O)[O-])s1
growth (%): 49.7

compound: C=C1C[C@@]2(C)C(CC[C@]3(C)C2CC=C2C4CC(C)(C)C[C@@H](OC(=O)/C(C)=C\C)[C@]4(C(=O)O)CC[C@]23C)C(C)(C)C1=O (some centres not stated)
growth (%): 8.17

compound: CCN(CC)CCNC(=O)C(F)(F)C(F)(F)C(F)(F)F
growth (%): 108

compound: O=S(=O)(Nc1ccc2ccccc2c1)N1CCCCC1
growth (%): 49

compound: COc1ccc(/C=C(\C#N)c2cc(OC)c(OC)c(OC)c2)cc1
growth (%): 3.63

compound: CN1CCCN(CCNc2nccc(-c3c(-c4cccc(O)c4)nc4sccn34)n2)S1(=O)=O
growth (%): 74.1

compound: C=CCOC(=O)C1=C(C)NC2=C(C(=O)CCC2)C1c1ccc(F)cc1 (configuration not stated)
growth (%): 95.6

compound: CCCCCCCCCCCCNC(=O)N[C@H](C(=O)N[C@H]1/C=C/OCCNC(=O)/C=C/[C@H](C(C)C)NC1=O)C(C)C
growth (%): 32.4

compound: c1ccc2c(N=NSc3ncnc4nc[nH]c34)c3ccccc3nc2c1
growth (%): -27.7

compound: CCc1c(C)c2ccc(O)c(-c3cc(-c4ccccc4)c(C#N)c(=O)[nH]3)c2oc1=O
growth (%): 84.7

compound: Cc1cc(C#Cc2ccc(C(C)(C)C)cc2)ccc1-n1c(/C=C/c2c(Cl)cccc2Cl)nc2ccccc2c1=O
growth (%): 85.9

compound: NS(=O)(=O)c1ccc(CCn2c(SCC(=O)N/N=C/c3cc4ccccc4[nH]3)nc3ccccc3c2=O)cc1
growth (%): 37.7

compound: COc1ccc2nc3cc(Cl)ccc3c(NC(=O)CSc3ccc(Cl)cc3)c2c1
growth (%): -60

compound: CC[C@H](C)[C@H](N)C(=O)O
growth (%): 103

compound: COc1ccc(/C=C/C(=O)CCC(=O)O)cc1OC
growth (%): 97.1

compound: CCCCc1nc(Cl)c(C2CC(c3ccc(S(N)(=O)=O)cc3)=NN2c2ccc(C#N)cc2)[nH]1 (configuration not stated)
growth (%): 76.1

compound: COc1ccc(-c2cc(-c3ccc(OC)cc3)c3sc(=O)[nH]c3n2)cc1
growth (%): 87.4

compound: Cc1c(C(N)=O)sc2ncn(CC(=O)NN=C3CCCCC3)c(=O)c12
growth (%): 109

* * *

Tested on: HT29 colon
measurementProtocol: NCI-60 one-dose screen, 48 h
reportedConditions: 10 µM unless noted
The panel holds about 83,000 compounds, 20% with a hit somewhere; the sample as a whole holds those more often. Calls of active or inactive are those of the source. Rule for the calls: active = growth percent below 10; inactive = the rest.
Possible outcomes: class 1 = active, class 0 = inactive

compound: C=C(C)[C@@H]1CC[C@]2(C(=O)NC(COC(=O)C(Cl)Cl)(COC(=O)C(Cl)Cl)COC(=O)C(Cl)Cl)CC[C@]3(C)[C@H](CC[C@@H]4[C@@]5(C)CC[C@H](OC(C)=O)C(C)(C)[C@@H]5CC[C@]43C)[C@@H]12
classification: class 1

compound: COc1cc(/C=C/c2cc(/C=C/c3ccc(O)c(OC)c3)n(C(=O)c3ccccc3Br)n2)ccc1O
classification: class 1

compound: COc1cc2c(c(OC)c1O)C(=O)C(OC)C(c1ccc(O)c(O)c1)O2 (stereo not drawn)
classification: class 0

compound: COc1nccc2c(Sc3ccccc3)nc(N)nc12
classification: class 0

compound: Cc1ccc2c(C)c3c(ccc4ccccc43)c[n+]2c1
classification: class 0

compound: O=[N+]([O-])c1ccc(N=Nc2c(NNc3ccc([N+](=O)[O-])cn3)cc(S(=O)(=O)O)c3ccccc23)nc1
classification: class 0

compound: c1cc(C2CCCCC2)ccc1-c1cnc2nonc2n1
classification: class 1

compound: O=C(CSc1nc2c(n1Nc1ccccc1)-c1ccccc1SC2)Nc1nccs1
classification: class 0

compound: Cc1ccc(C(=O)CC(=O)C(F)(F)C(F)(F)C(F)(F)F)s1
classification: class 0

compound: COc1ccc([C@H]2c3[nH]c4ccccc4c3C[C@H]3C(=O)N(CCCCCCC(=O)NO)CC(=O)N23)cc1
classification: class 0

compound: COc1ccc(/C(C)=N/NC(=O)c2ccc(S(C)(=O)=O)cc2)cc1OC
classification: class 0

compound: COc1cc(CN(c2ccc(C)cc2)C2OC(=O)c3ccccc32)cc(OC)c1OC (stereo not drawn)
classification: class 0

compound: COc1cc(C2CC(c3ccccc3)=NN2C=O)ccc1Oc1ccnc2cc(Cl)ccc12 (stereo not drawn)
classification: class 0

compound: Clc1ccc(-c2cnc3nonc3n2)s1
classification: class 0

compound: COc1ccc2c(c1)sc1nc(-c3ccccc3)c(-c3cccc4ccccc34)n12
classification: class 1

compound: C=C(C)[C@@H]1CC[C@]2(C(=O)O)CC[C@]3(C)[C@H](CC[C@@H]4[C@@]5(C)C[C@@H](CC#Cc6ccc(C(C)=O)s6)[C@H](O)C(C)(C)[C@@H]5CC[C@]43C)[C@@H]12
classification: class 0

compound: CC(C)(C)[Si](C)(C)OC1[C@@H](CNC(N)=O)O[C@@H](n2cnc3c(NC(=O)Nc4ccccc4)ncnc32)[C@H]1O[Si](C)(C)C(C)(C)C (stereo partly drawn)
classification: class 1

compound: O=C(Nc1ccc(Cl)cc1)c1cc(-c2ccc(Cl)cc2)c2sc(=O)[nH]c2n1
classification: class 1
